Attribution: patent US11319315B2

molecular target: human LPA1 (Homo sapiens, UniProt Q92633); construct: expressed in transfected cells; host or cells: Chinese hamster ovary (CHO) cells; experiment: LPA1 functional antagonist assay (LPA-induced calcium flux in CHO cells overexpressing human LPA1); assay type: cell-based; settings: inhibition of calcium flux induced by 10 nM LPA, CHO cells overexpressing human LPA1; read-out: hLPA1 IC50
Sequence (Q92633 whole entry): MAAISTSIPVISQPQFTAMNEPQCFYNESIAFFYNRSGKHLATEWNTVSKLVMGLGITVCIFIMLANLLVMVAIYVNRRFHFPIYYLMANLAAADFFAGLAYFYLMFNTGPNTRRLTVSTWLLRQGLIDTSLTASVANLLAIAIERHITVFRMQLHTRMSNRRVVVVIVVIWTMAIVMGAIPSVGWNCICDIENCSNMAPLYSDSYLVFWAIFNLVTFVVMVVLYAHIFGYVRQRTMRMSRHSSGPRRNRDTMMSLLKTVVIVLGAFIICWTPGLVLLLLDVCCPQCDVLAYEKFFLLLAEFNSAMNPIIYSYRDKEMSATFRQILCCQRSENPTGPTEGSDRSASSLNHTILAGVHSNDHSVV
readout: log10 of IC50 (log10 of the value in nM)
// do not treat as linear: log10 of IC50, unit nM

{"molecule": "Cc1nc(-c2nnn(C)c2Cn2nnnc2CC2CCCC2)ccc1O[C@H]1CCC[C@H](C(=O)O)C1", "log10 of IC50": 2.19}

Please state, for each entry, its recorded log10 of IC50.
1. Cc1nc(-c2nnn(C)c2Cn2nnc(-c3cccc(F)c3)n2)ccc1O[C@H]1CCC[C@H](C(=O)O)C1
2. CCCCc1nnnn1Cc1c(-c2ccc(O[C@H]3CCC[C@H](C(=O)O)C3)c(C)n2)nnn1C
3. Cc1nc(-c2nnn(C)c2CNc2noc(CCCCF)n2)ccc1O[C@H]1CCC[C@H](C(=O)O)C1

Solution:
[1.76, 2.25, 1.51]

Please state, for each entry, its recorded log10 of IC50.
1. COc1cccc(Cc2nnn(Cc3c(-c4ccc(O[C@H]5CCC[C@H](C(=O)O)C5)c(C)n4)nnn3C)n2)c1
2. CC[C@@H](OC)c1nc(NCc2c(-c3ccc(O[C@H]4CCC[C@H](C(=O)O)C4)c(C)n3)nnn2C)no1 (single isomer, unassigned) [Example 215]

Solution:
1.08
2.19

Problem: Form field: reported log10 of IC50 of Cc1nc(-c2nnn(C)c2Cn2ncc(CC(C)C)n2)ccc1O[C@H]1CCC[C@H](C(=O)O)C1
Solution: 1.54

###

target: human LPA1 (Homo sapiens, UniProt Q92633); construct: expressed in transfected cells; host or cells: Chinese hamster ovary (CHO) cells; assay: LPA1 functional antagonist assay (LPA-induced calcium flux in CHO cells overexpressing human LPA1); type: cell-based; conditions: inhibition of calcium flux induced by 10 nM LPA, CHO cells overexpressing human LPA1; read-out: hLPA1 IC50
For each entry below, report its pIC50 value.
Numbers only, as −log10 of the molar value.

{"compound": "Cc1nc(-c2nnn(C)c2CNc2nc(CC(C)C)ns2)ccc1O[C@H]1CCC[C@H](C(=O)O)C1 [Example 102]", "target_under_test": "human LPA1 (Homo sapiens, UniProt Q92633)", "pIC50": 7.01}
{"compound": "Cc1nc(-c2nnn(C)c2Cn2nnc(Cc3ccccc3)n2)ccc1O[C@H]1CCC[C@H](C(=O)O)C1 [Example 109]", "target_under_test": "human LPA1 (Homo sapiens, UniProt Q92633)", "pIC50": 7.85}
{"compound": "Cc1nc(-c2nnn(C)c2CNc2noc(CCC3CC3)n2)c(F)cc1O[C@H]1CCC[C@H](C(=O)O)C1 [Example 279]", "target_under_test": "human LPA1 (Homo sapiens, UniProt Q92633)", "pIC50": 7.29}

Now for a further compound.
Problem: Form field: reported pIC50 of Cc1nc(-c2nnn(C)c2CNc2nnc(C(C)C)s2)ccc1O[C@H]1CCC[C@H](C(=O)O)C1 [Example 122]
Solution: 6.26

###

For each entry below, report its IC50 value.
Target: human LPA1 (Homo sapiens)
Construct: expressed in transfected cells; host or cells: Chinese hamster ovary (CHO) cells
Experiment: LPA1 functional antagonist assay (LPA-induced calcium flux in CHO cells overexpressing human LPA1)
Assay type: cell-based
Conditions: inhibition of calcium flux induced by 10 nM LPA, CHO cells overexpressing human LPA1; read-out: hLPA1 IC50
Protocol: The effectiveness of compounds of the present invention as LPA1 inhibitors can be determined in an LPA1 functional antagonist assay as follows: Chinese hamster ovary cells overexpressing human LPA1 were plated overnight (15,000 cells/well) in poly-D-lysine coated 384-well microplates (Greiner bio-one, Cat #781946) in DMEM/F12 medium (Gibco, Cat #11039). […] IC50 values were determined by fitting data to a 4-parameter logistic equation (GraphPad Prism, San Diego Calif.).
Param answer (str): number followed by unit.

{"compound": "Cc1nc(-c2nnn(C)c2CNc2noc(C(C)C3CC3)n2)ccc1O[C@H]1CCC[C@H](C(=O)O)C1 (stereo partly shown) [Example 194]", "target_under_test": "human LPA1 (Homo sapiens)", "IC50": "25 nM"}

Please state, for each entry, its recorded IC50.
1. CCC(OC)c1nc(NCc2c(-c3ccc(O[C@H]4CCC[C@H](C(=O)O)C4)c(C)n3)nnn2C)no1 (mixture of isomers) [Example 217]
2. Cc1nc(-c2nnn(C)c2Cc2nnn(CCC3CC3)n2)ccc1O[C@H]1CCC[C@H](C(=O)O)C1 [Example 400]
3. Cc1nc(-c2nnn(C)c2CNc2noc(CCC(C)F)n2)ccc1O[C@H]1CCC[C@H](C(=O)O)C1 (stereo partly shown) [Example 167]
4. Cc1nc(-c2nnn(C)c2CNc2nc(-c3ccccc3)c(F)s2)ccc1O[C@H]1CCC[C@H](C(=O)O)C1 [Example 21]
5. Cc1nc(-c2nnn(C)c2COc2nc(C(C)C)ns2)ccc1O[C@H]1CCC[C@H](C(=O)O)C1 [Example 128]
6. Cc1nc(-c2nnn(C)c2CNc2noc(-c3ccccc3)n2)ccc1O[C@H]1CCC[C@H](C(=O)O)C1 [Example 65]

Solution:
["84 nM", "129 nM", "16 nM", "18 nM", "98 nM", "23 nM"]

###

target: human LPA1 (Homo sapiens); construct: expressed in transfected cells; host or cells: Chinese hamster ovary (CHO) cells; test: LPA1 functional antagonist assay (LPA-induced calcium flux in CHO cells overexpressing human LPA1); assay type: cell-based; settings: inhibition of calcium flux induced by 10 nM LPA, CHO cells overexpressing human LPA1; read-out: hLPA1 IC50
readout: IC50 (nM)
One number for each entry, in nM.

Worked set:
{"molecule": "Cc1nc(-c2nnn(C)c2COc2nnn(CC(C)C)n2)ccc1O[C@H]1CCC[C@H](C(=O)O)C1", "target_under_test": "human LPA1 (Homo sapiens)", "readout": "IC50", "unit_symbol": "nM", "value": 20}
{"molecule": "Cc1nc(-c2nnn(C)c2CNc2nc(C3CCCC3)no2)ccc1O[C@H]1CCC[C@H](C(=O)O)C1", "target_under_test": "human LPA1 (Homo sapiens)", "readout": "IC50", "unit_symbol": "nM", "value": 43}
{"molecule": "CCCC(C)c1nc(NCc2c(-c3ccc(O[C@H]4CCC[C@H](C(=O)O)C4)c(C)n3)nnn2C)no1 (stereo partly shown)", "target_under_test": "human LPA1 (Homo sapiens)", "readout": "IC50", "unit_symbol": "nM", "value": 12}
{"molecule": "Cc1nc(-c2nnn(C)c2CNc2noc(CCCC(F)(F)F)n2)ccc1O[C@H]1CCC[C@H](C(=O)O)C1", "target_under_test": "human LPA1 (Homo sapiens)", "readout": "IC50", "unit_symbol": "nM", "value": 9.1}
{"molecule": "CCCc1nnn(Cc2c(-c3ccc(O[C@H]4CCC[C@H](C(=O)O)C4)c(C)n3)nnn2C)n1", "target_under_test": "human LPA1 (Homo sapiens)", "readout": "IC50", "unit_symbol": "nM", "value": 30}

Please state, for each entry, its recorded IC50.
1. Cc1nc(-c2nnn(C)c2CNc2noc(C3CC3C)n2)ccc1O[C@H]1CCC[C@H](C(=O)O)C1 (stereo partly shown)
2. Cc1nc(-c2nnn(C)c2Cn2nnnc2OCC2CC2)ccc1O[C@H]1CCC[C@H](C(=O)O)C1

Solution:
1. 42.1
2. 152

###

molecular target: human LPA1 (Homo sapiens); construct: expressed in transfected cells; host or cells: Chinese hamster ovary (CHO) cells; test: LPA1 functional antagonist assay (LPA-induced calcium flux in CHO cells overexpressing human LPA1); type: cell-based; details: inhibition of calcium flux induced by 10 nM LPA, CHO cells overexpressing human LPA1; read-out: hLPA1 IC50
Please assign Not fulfilled whenever IC50 is at or above 0.08 µM, and Fulfilled whenever it is below.

Look over these answered cases.
{"molecule": "Cc1nc(-c2nnn(C)c2CNc2nc(-c3ccccc3)c(C)s2)ccc1O[C@H]1CCC[C@H](C(=O)O)C1", "label": "Fulfilled"}
{"molecule": "Cc1nc(-c2nnn(C)c2Cn2nnc(CC3CC3)n2)ccc1O[C@H]1CCC[C@H](C(=O)O)C1", "label": "Fulfilled"}

Problem: Please determine if CCC(C)n1cnc(OCc2c(-c3ccc(O[C@H]4CCC[C@H](C(=O)O)C4)c(C)n3)nnn2C)n1 (stereo partly shown) is below 0.08 µM in terms of IC50.
Solution: Not fulfilled

Problem: Param item: CCC(C)c1nc(NCc2c(-c3ccc(O[C@H]4CCC[C@H](C(=O)O)C4)c(C)n3)nnn2C)no1 (stereo partly shown)
Solution: Fulfilled

Problem: Param item: Cc1nc(-c2nnn(C)c2CNc2nnc(CC(C)C)s2)ccc1O[C@H]1CCC[C@H](C(=O)O)C1
Solution: Not fulfilled

Problem: Param item: Cc1nc(-c2nnn(C)c2Cn2cc(CC(C)C)nn2)ccc1O[C@H]1CCC[C@H](C(=O)O)C1
Solution: Not fulfilled

Problem: Param item: Cc1nc(-c2nnn(C)c2CNc2cc(C(C)C)no2)ccc1O[C@H]1CCC[C@H](C(=O)O)C1
Solution: Not fulfilled
